experimental readout: pKi
Please note pKi is a logarithmic value: minus log10 of concentration in mol/L. Answer with that number alone.

Q: Send back bovines pankreatisches Trypsin (Bos taurus, UniProt P00760) pKi of N=C(N)N1CCC(Oc2ccc(S(=O)(=O)Nc3ccc4c(c3)CN(C(=N)N)CC4)cc2)CC1 only.
Ans: 7.00
